target: human recombinant histamine H1 receptor (Homo sapiens, UniProt P35367); construct: expressed in transfected cells; host or cells: CHO cells; experiment: Histamine H1 radioligand binding ([3H]Pyrilamine); conditions: read-out: Inhibition of ligand binding, Hist. H1
Sequence (P35367 whole entry): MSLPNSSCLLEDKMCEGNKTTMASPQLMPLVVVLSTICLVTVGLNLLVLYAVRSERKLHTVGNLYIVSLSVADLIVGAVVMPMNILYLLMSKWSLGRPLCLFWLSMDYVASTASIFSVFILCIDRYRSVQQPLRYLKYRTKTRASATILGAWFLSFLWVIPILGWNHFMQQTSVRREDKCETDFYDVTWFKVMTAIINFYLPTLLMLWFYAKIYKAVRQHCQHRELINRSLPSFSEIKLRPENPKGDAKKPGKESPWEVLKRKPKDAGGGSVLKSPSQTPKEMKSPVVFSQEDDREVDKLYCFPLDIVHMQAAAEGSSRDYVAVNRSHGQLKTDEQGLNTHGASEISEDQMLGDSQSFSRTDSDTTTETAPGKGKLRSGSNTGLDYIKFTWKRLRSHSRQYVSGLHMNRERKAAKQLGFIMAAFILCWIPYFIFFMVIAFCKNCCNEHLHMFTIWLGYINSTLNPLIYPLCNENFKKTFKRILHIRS
Use 90% as the dividing line for inhibition at 1 µM, with the line itself on the 1 side and lower values as -1.

compound: CN1CCc2c(c3ccccc3n2CCc2ccccc2)C1 [Compound 2]
label: -1
--
compound: Cc1ccc(CCn2c3c(c4cc(Cl)ccc42)CN(C)CC3)cn1 [Compound 225]
label: 1
--
compound: Cc1ccc2c(c1)c1c(n2CCc2ccc(C)nc2)CCN(C)C1=O [Compound 216]
label: -1
--
compound: CN1CCc2c(c3cc(Cl)ccc3n2CCc2ccc(C(F)(F)F)nc2)C1 [Compound 250]
label: 1
--
compound: Cc1ccc2c(c1)c1c(n2CCc2ccccc2)CC(O)N(C)C1=O (stereo not drawn) [Compound 215]
label: -1
--
compound: Cc1ccc2c(c1)c1c(n2CCc2ccc(C)nc2)CCN(C)C1 [Dimebon, dimebon, reference compound]
label: 1
